- Test system: NCI-H510 multicellular tumor spheroid growth, % test/control
- test-summary: Anticancer human tumor NCI-H510 cell line growth inhibition [Asc];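 further: spheroids exposed to agents for 7 days; 100% = DMSO vehicle control wells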
- measurement-parameters: second compound 3 µM; first compound 0.1 µM; stronger effect = lower value
recorded-metric: viability, T/C (%)

NC1CCC(NC2CC2c2ccccc2)CC1 (configuration not stated) + CCN1C(C(=O)NC23CCC(C(=O)O)(CC2)CC3)C(c2cccc(Cl)c2F)C2(C(=O)Nc3cc(Cl)ccc32)C12CCCCC2 : 46.6
CNC(C)C(=O)NC1CN(S(=O)(=O)c2cccc(S(=O)(=O)N3CCC4CCC(C(=O)NC(c5ccccc5)c5ccccc5)N4C(=O)C(NC(=O)C(C)NC)C3)c2)CCC2CCC(C(=O)NC(c3ccccc3)c3ccccc3)N2C1=O (configuration not stated) + CCN1C(C(=O)NC23CCC(C(=O)O)(CC2)CC3)C(c2cccc(Cl)c2F)C2(C(=O)Nc3cc(Cl)ccc32)C12CCCCC2 : 84.1

====

- System: NCI-H510 multicellular tumor spheroid growth, % test/control
- test-summary: Anticancer human tumor NCI-H510 cell line growth inhibition [Asc];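 further: spheroids exposed to agents for 7 days; 100% = DMSO vehicle control wells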
- measurement-parameters: second compound 10 µM; first compound 0.316 µM; stronger effect = lower value
Recorded viability, T/C, one value per entry.
recorded-metric: viability, T/C (%)

COc1c(OCCCN2CCOCC2)ccc2c3n(c(=NC(=O)c4cnc(N)nc4)nc12)CCN3 + Cc1c(S(C)(=O)=O)c(-c2cc(F)cc(N3CCN(c4ccc(NS(=O)(=O)c5ccc(NC(CCN6CCC(C(=O)OCCCP(=O)(O)O)CC6)CSc6ccccc6)c(S(=O)(=O)C(F)(F)F)c5)cc4)CC3)c2)c(-c2ccc(Cl)cc2)n1C(C)C : 37.6
CNC(C)C(=O)NC1CN(S(=O)(=O)c2cccc(S(=O)(=O)N3CCC4CCC(C(=O)NC(c5ccccc5)c5ccccc5)N4C(=O)C(NC(=O)C(C)NC)C3)c2)CCC2CCC(C(=O)NC(c3ccccc3)c3ccccc3)N2C1=O (configuration not stated) + Cc1c(S(C)(=O)=O)c(-c2cc(F)cc(N3CCN(c4ccc(NS(=O)(=O)c5ccc(NC(CCN6CCC(C(=O)OCCCP(=O)(O)O)CC6)CSc6ccccc6)c(S(=O)(=O)C(F)(F)F)c5)cc4)CC3)c2)c(-c2ccc(Cl)cc2)n1C(C)C : 111

====

- Tested on: NCI-H510 multicellular tumor spheroid growth, % test/control
- test-summary: Anticancer human tumor NCI-H510 cell line growth inhibition [Asc];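 further: spheroids exposed to agents for 7 days; 100% = DMSO vehicle control wells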
- measurement-parameters: second compound 0.1 µM; first compound 0.01 µM; stronger effect = lower value
Recorded viability, T/C, one value per entry.
recorded-metric: viability, T/C (%)

O=C(c1ccc(F)c(F)c1Nc1ccc(I)cc1F)N1CC(O)([C@@H]2CCCCN2)C1 + Cc1c(S(C)(=O)=O)c(-c2cc(F)cc(N3CCN(c4ccc(NS(=O)(=O)c5ccc(NC(CCN6CCC(C(=O)OCCCP(=O)(O)O)CC6)CSc6ccccc6)c(S(=O)(=O)C(F)(F)F)c5)cc4)CC3)c2)c(-c2ccc(Cl)cc2)n1C(C)C : 107
Cn1ncnc1[C@H]1c2n[nH]c(=O)c3cc(F)cc(c23)N[C@@H]1c1ccc(F)cc1 + Cc1c(S(C)(=O)=O)c(-c2cc(F)cc(N3CCN(c4ccc(NS(=O)(=O)c5ccc(NC(CCN6CCC(C(=O)OCCCP(=O)(O)O)CC6)CSc6ccccc6)c(S(=O)(=O)C(F)(F)F)c5)cc4)CC3)c2)c(-c2ccc(Cl)cc2)n1C(C)C : 58.2
O=C(c1ccc(F)c(F)c1Nc1ccc(I)cc1F)N1CC(O)([C@@H]2CCCCN2)C1 + CNC(C)C(=O)NC1CN(S(=O)(=O)c2cccc(S(=O)(=O)N3CCC4CCC(C(=O)NC(c5ccccc5)c5ccccc5)N4C(=O)C(NC(=O)C(C)NC)C3)c2)CCC2CCC(C(=O)NC(c3ccccc3)c3ccccc3)N2C1=O : 95.2
CCN1CCN(Cc2ccc(Nc3ncc(F)c(-c4cc(F)c5nc(C)n(C(C)C)c5c4)n3)nc2)CC1 + Cc1c(S(C)(=O)=O)c(-c2cc(F)cc(N3CCN(c4ccc(NS(=O)(=O)c5ccc(NC(CCN6CCC(C(=O)OCCCP(=O)(O)O)CC6)CSc6ccccc6)c(S(=O)(=O)C(F)(F)F)c5)cc4)CC3)c2)c(-c2ccc(Cl)cc2)n1C(C)C : 91.2
NC1CCC(NC2CC2c2ccccc2)CC1 (stereo not given) + CNC(C)C(=O)NC1CN(S(=O)(=O)c2cccc(S(=O)(=O)N3CCC4CCC(C(=O)NC(c5ccccc5)c5ccccc5)N4C(=O)C(NC(=O)C(C)NC)C3)c2)CCC2CCC(C(=O)NC(c3ccccc3)c3ccccc3)N2C1=O : 89.8
